# Z-AUC per record follows
Assay: qHTS drug screen for cell cycle checkpoint inhibitors in PARPi-resistant BRCA-mutant ovarian cancer cell lines. (AID 1963452)
Details: PEO1/OlaR viability, CellTiter-Glo luminescence, 96 h; active compounds read low
Lab note: record the figure alone, no unit after it.

Observe how each entry below is paired with its result.
>>> df
                                   molecule  property  numeric_readout
0  CCn1cc(C(=O)O)c(=O)c2cc(F)c(N3CCNCC3)cc21     Z-AUC            0.488
1  O=c1oc2c(O)c(O)cc3c(=O)oc4c(O)c(O)cc1c4c23     Z-AUC            0.559
2  CCOC(=O)[C@H](CCc1ccccc1)N[C@H]1CS[C@H](c2cccs2)CN(CC(=O)O)C1=O     Z-AUC           -0.655
3             Nc1nc(N)nc(-c2cc(Cl)ccc2Cl)n1     Z-AUC             0.87
4  O=C(O)c1cn(C2CC2)c2cc(N3CCNCC3)c(F)cc2c1=O     Z-AUC            0.135

Input line: Z-AUC lookup needed for COc1cc2nc(N3CCCN(C)CC3)nc(NC3CCN(Cc4ccccc4)CC3)c2cc1OC , thanks.
Output line: 0.899

Input line: Z-AUC lookup needed for CC(C)(C)C(=O)OCOP(=O)(COCCn1cnc2c(N)ncnc21)OCOC(=O)C(C)(C)C , thanks.
Output line: 0.383

Input line: Z-AUC lookup needed for CC[C@H](C)C(=O)O[C@H]1C[C@@H](C)C=C2C=C[C@H](C)[C@H](CC[C@@H]3C[C@@H](O)CC(=O)O3)[C@H]21 , thanks.
Output line: 1

Input line: Z-AUC lookup needed for O=C(O)C1CCCN(CCC=C(c2ccccc2)c2ccccc2)C1 (stereo not given) , thanks.
Output line: 1.76

Input line: Z-AUC lookup needed for N=C(N)c1ccc(OCCCCCOc2ccc(C(=N)N)cc2)cc1 , thanks.
Output line: 0.0445

---

Biological target: N-terminal Xaa-Pro-Lys N-methyltransferase 1 (Homo sapiens) (UniProt Q9BV86)
Sequence (Q9BV86 whole entry, looked up): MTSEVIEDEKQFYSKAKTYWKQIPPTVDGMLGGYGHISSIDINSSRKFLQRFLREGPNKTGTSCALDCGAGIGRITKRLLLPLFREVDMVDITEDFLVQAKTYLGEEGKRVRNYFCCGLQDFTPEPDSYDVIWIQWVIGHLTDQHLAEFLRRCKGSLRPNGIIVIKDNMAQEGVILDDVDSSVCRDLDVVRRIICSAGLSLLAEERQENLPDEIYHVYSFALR
Assay: qHTS Assay for Inhibitors of N-terminal methyltransferase 1 (NTMT1): LOPAC validation of the NTMT1 SAHH-coupled ThioGlo3 Assay (AID 1347143);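 also: SAH from peptide methylation measured as thiol fluorescence via SAHH coupling and ThioGlo3; nearly all actives have a fitted effect of over 70% in size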
Conditions: recombinant NTMT1, SAHH-coupled ThioGlo3 fluorescence; series mostly up to 114 µM
Records with an inconclusive call do not appear. Active and inactive are the calls of the source. Calls come from the whole dose curve; as a rule, active = well fitted inhibition curve with a large enough effect; inconclusive = small, poorly fitted or top-dose-only effect; inactive = no such curve, though single readings can be large or run the other way.
The reply should name one outcome from active, inactive

In [3]: df
Out[3]:
                                   compound  classification
0  Nc1nc(N)c2nc(CNc3ccc(C(=O)NC(CCC(=O)O)C(=O)O)cc3)cnc2n1 (configuration not stated)          active
1      OCc1ccc(-c2nn(Cc3ccccc3)c3ccccc23)o1          active
2  CNS(=O)(=O)CCc1ccc2[nH]cc(C3CCN(C)CC3)c2c1        inactive
3  CC(C)NCC(O)c1ccc(NS(C)(=O)=O)cc1 (configuration not stated)        inactive
4  COc1cc2nc(N3CCCN(C)CC3)nc(NC3CCN(Cc4ccccc4)CC3)c2cc1OC        inactive
5                    NC(=O)c1ccc2[nH]ccc2c1        inactive

Next item in the queue.
Input line: Answer briefly: the call reported for CCN1CCCC1CNC(=O)c1cc(S(N)(=O)=O)ccc1OC (configuration not stated) in this assay.
Output line: active
